Data credit: the supplement of paper PMC6555819

# Test system: RARg homodimer (NR concentration 270 nM)
# protocol-summary: PBM binding z-score (relative to random genomic background probes); higher = stronger binding; sequences stand for … in GC…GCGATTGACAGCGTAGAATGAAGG
Provide the reported PBM binding z-score of each item.
The reply should be a number, written without any unit.

**Query** So what's the measured PBM binding z-score for this one? `GATACAGGGTCAGCTAGAGGCCAGGGTATGGAAA`
**Result** 4.95

**Query** Entry to check: `TCATATAGGTAAAGGTGAAAGTGGAACGATATGA`
**Result** 1.52

**Query** Entry to check: `CTACCAAGGAGAACAAGGTCGTTGATTACTATTC`
**Result** 0.266

**Query** Entry to check: `CCTGCTAGGTCAATGGCCAGCTAAAGCAGCTCGC`
**Result** 3.65

**Query** Entry to check: `ACTAGCAGACCAAGTTTGGGTCACTCAAACAAAG`
**Result** 0.702

**Query** Entry to check: `CGTCAAAGTTCAAGGTACCGTAACAGAAAGCAGC`
**Result** 6.14

**Query** Entry to check: `CCTAGTTGGGCAAGGTCACACACGCTATAGGTAC`
**Result** 3.87

**Query** Entry to check: `GATACAGGGTCAGCTAGAGGCCATAGTATGGAAA`
**Result** 4.83

**Query** Entry to check: `TCTAGTTGGTCACAGAGGTCACACACGACGGGTA`
**Result** 5.57

**Query** Entry to check: `GGAACGAGGGCATTCAAGTTGATAGCATGGCGAT`
**Result** 1.74

**Query** Entry to check: `CAAACTAGGTCACTGGAAGGTCAAAGTCCGCATG`
**Result** 6.65

**Query** Entry to check: `CCTGCTAGCTCATGGTCAGCTAATCTACAGTATG`
**Result** -0.0465

**Query** Entry to check: `TCTATTAGTTGAAGGGCAACCGTCGAGTCCGTTT`
**Result** 0.573

**Query** Entry to check: `CAAACTAGGTCACGAAAGGTTAAAGTCGAATGAC`
**Result** 6.18

**Query** Entry to check: `AGTCAAAGTTCACTAGGTACCGTAAGATTCAGCT`
**Result** 5.92

**Query** Entry to check: `TAGCCTAGGTCATTGGGCCAGGATAGTACGCATC`
**Result** 4.56

----------
# System: RARg:RXRa (NR concentration 270 nM, RXRa partner concentration 90 nM)
# protocol-summary: PBM binding z-score (relative to random genomic background probes); higher = stronger binding; sequences stand for … in GC…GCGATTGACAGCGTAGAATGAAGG
Grouping rule (PBM binding z-score): low range: < 1; mid range: ≥ 1 and < 5; high range: ≥ 5

**Query** Please classify: `CGAGCTAGGTCATCCAGGACAGTGAATACATTGA`
**Result** mid range

**Query** Entry to check: `TCAGACAGCTGAAGGTAACTCAGGTACGCAGTCG`
**Result** low range

**Query** Entry to check: `CTTCCAAGGTCAGAGAGGTCAGTGAATGCCGAGT`
**Result** high range

**Query** Entry to check: `CTCGAAAGGTCGGTTGAGGTGAGTACACGGATAA`
**Result** mid range

**Query** Entry to check: `CCGACTGGGGCATAAGGTTTCCATAAGCCAGCCC`
**Result** low range

**Query** Entry to check: `CCTAGCAGGCCAATCTGGGTCCCTCAAGGCTTGA`
**Result** low range

**Query** Entry to check: `CCTACTGGGCCAAAAAGGTCATTGGTGCCGATAA`
**Result** mid range

**Query** Entry to check: `CAGCCTAGGCCAGGGCCAGTATAGGAGGAACGTT`
**Result** low range

**Query** Entry to check: `CGAACGAGGGCCTGAGTTGATAGCAAATGCCGAT`
**Result** low range

**Query** Entry to check: `AGTCAAAGATCACTAGGTAACGTAAGATTCAGCT`
**Result** low range

**Query** Entry to check: `ATCTCTATGTAAAGTTCAGTGAAAGATCGATAGA`
**Result** mid range

**Query** Entry to check: `TAGCCTAGTTCATTGGGCCAGTATAGTACGCATC`
**Result** low range

**Query** Entry to check: `CCTTACGGGTCAAGGTTATTGCACGGGTGGTACG`
**Result** mid range

**Query** Entry to check: `ATATGTGGGTTACATCCGGGTCATTCAGGCTATG`
**Result** mid range

**Query** Entry to check: `CAAACTAGGTCAAGAGGTCGAAGTCCGCTTCCCG`
**Result** high range

**Query** Entry to check: `CCTTACGGGTCAATCCAGGTTATAGCATCGGAGT`
**Result** mid range

**Query** Entry to check: `CCTTACGGATCACGAGGTTATAGCACGACGAGCG`
**Result** low range

**Query** Entry to check: `GCTAGTTGGTCAGAAAAAGGTCACACACCGGTCG`
**Result** high range

**Query** Entry to check: `GCGACTGGGGCATCAGCAGGTTACCATAACTTAA`
**Result** low range

**Query** Entry to check: `TCAGACAGGTGAAGGTCACTCAGGTACGCAGTCG`
**Result** mid range

**Query** Entry to check: `GCTATTAATTGAAAGGGCAACCGAATGATTCTCG`
**Result** low range

**Query** Entry to check: `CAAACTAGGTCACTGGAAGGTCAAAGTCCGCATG`
**Result** high range

**Query** Entry to check: `CAAACTAGGTCAAGAGGTCACAGTCCGCTTCCCG`
**Result** high range

**Query** Entry to check: `CCGACTGGGGCAAAGGTTACCTTACTCAGTACGA`
**Result** mid range

**Query** Entry to check: `TCTCGGAGGACACGAAAGGTCACAGCTCGACATC`
**Result** high range

**Query** Entry to check: `TTACCAAGGTGAGGTGAGGTCGTTGATCCAACTC`
**Result** mid range

**Query** Entry to check: `GCTCGGAGTACAAGGTCAGAGCTTTGTCCGTAGA`
**Result** mid range

**Query** Entry to check: `CAAATTAGGTCACGAAAGGTCAAAGTCGAATGAC`
**Result** high range

**Query** Entry to check: `ACCGACAGGTGAGTGAAGGTAACTCAGCTGGACG`
**Result** low range

**Query** Entry to check: `TCGAGTAGGTTACCAATGGGGCATTTAGCTTTCT`
**Result** mid range

**Query** Entry to check: `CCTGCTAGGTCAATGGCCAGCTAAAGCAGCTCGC`
**Result** mid range

**Query** Entry to check: `GCTGCTAGGTCAACTGATGGTCAGCTTAAGCTCG`
**Result** high range

**Query** Entry to check: `TCTTGTAGATCAAGCATGTTAAGAAAGCCTGAGT`
**Result** low range

**Query** Entry to check: `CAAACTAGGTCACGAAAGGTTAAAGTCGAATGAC`
**Result** high range

**Query** Entry to check: `TAGCCTAGGTCATGGGCCAGTCTACCACGCGAAC`
**Result** mid range

**Query** Entry to check: `CGTGCTAGGTCATGGTCAGCTAATCTACAGTATG`
**Result** mid range

**Query** Entry to check: `TCTAGCAGGCCAGAGGGCCACTCAAGAGGTACGG`
**Result** low range
